Test system: MIWI (PIWIL1) piRISC loaded with L1MC piRNA (30 nt);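 note: 1 nM active piRISC with 0.1 nM target library at 33 °C single turnover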
Test details: pre-steady-state target cleavage rate (min^-1); higher = faster piRNA-guided slicing of the target
Measurement parameters: guide: L1MC piRNA 5'p-UAACUAAAUACUAUGCAAGCUGUAGGUCCU; auxiliary factor: none (no GTSF1)
Whole data set: some 8,200 sequences, median “pre-steady-state target cleavage rate” near 0.024, cut for the highest 2% near 1.3. The sample holds the highest values, similar sequences and a random draw of the others, so the mix is not that of the screen.
Result type: pre-steady-state target cleavage rate
I only need the number, thanks.

Documented pre-steady-state target cleavage rate of AGGACAUACAGCUUGCAUAGUAUUUAGUUA : 0.0818

----------
Test system: MIWI (PIWIL1) piRISC loaded with L1MC piRNA (30 nt);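 note: 1 nM active piRISC with 0.1 nM target library at 33 °C single turnover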
Test details: pre-steady-state target cleavage rate (min^-1); higher = faster piRNA-guided slicing of the target
Measurement parameters: guide: L1MC piRNA 5'p-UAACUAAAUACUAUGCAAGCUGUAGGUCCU; auxiliary factor: none (no GTSF1)
Over roughly 8,200 sequences, “pre-steady-state target cleavage rate” has its median near 0.024; the highest 2% begin near 1.3. The sample holds the highest values, similar sequences and a random draw of the others, so the mix is not that of the screen.
The threshold is inclusive: pre-steady-state target cleavage rate of exactly 0.01 counts as TRUE; values below receive FALSE.

Study these solved cases before continuing.
* UCGACCUACAGCUGCAUAGUAUUUAGUUA | FALSE
* UCGACCUACAGCUCUGCAUAGUAUUUAGUUA | TRUE
* UGGACCUACAGCAUCCAUAGUAUUUAGUUA | FALSE
* UCCUGCUACAGCUCUGCAUAGUAUUUAGUUA | TRUE
* AGGACCUACAGCUCUGCAUAGUAUUUAGUUA | TRUE

As a next step, examine the sequence that follows.
Check this sequence for pre-steady-state target cleavage rate at or above 0.01: AGGACCUACAGCUGCAUAGUAUUUAGUUA
TRUE

----------
Test system: MIWI (PIWIL1) piRISC loaded with L1MC piRNA (30 nt);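 note: 1 nM active piRISC with 0.1 nM target library at 33 °C single turnover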
Test details: pre-steady-state target cleavage rate (min^-1); higher = faster piRNA-guided slicing of the target
Measurement parameters: guide: L1MC piRNA 5'p-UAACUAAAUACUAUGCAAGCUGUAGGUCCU; auxiliary factor: none (no GTSF1)
Over roughly 8,200 sequences, “pre-steady-state target cleavage rate” has its median near 0.024; the highest 2% begin near 1.3. For the sample, the highest values were picked, then their nearest neighbours and some sequences at random.
Classes (pre-steady-state target cleavage rate): LOW (below 0.01), MID (0.01 to below 0.07), HIGH (0.07 or more)

• UCCUGCUACAGCUUGCAAACUAUUUAGUUA = LOW

Hello team, could you let me know which band the following sequence falls into: UCGACCUACAGCUUGCAUAGUUAAUAGUUA
LOW

Classify this sequence: AGCACCUACAGCUUGCAUAGUAUUUAGUAA
HIGH

----------
Tested on: MIWI (PIWIL1) piRISC loaded with L1MC piRNA (30 nt);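 note: 1 nM active piRISC with 0.1 nM target library at 33 °C single turnover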
Test details: pre-steady-state target cleavage rate (min^-1); MIWI and MILI are mouse PIWI proteins and EfPiwi is from a freshwater sponge; tags in brackets are library labels; higher = faster piRNA-guided slicing of the target;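 note: 1 nM active piRISC with 0.1 nM target library at 33 °C single turnover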
Measurement parameters: guide: L1MC piRNA 5'p-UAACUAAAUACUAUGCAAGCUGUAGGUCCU; auxiliary factor: 500 nM mouse GTSF1
Whole data set: some 8,200 sequences, median “pre-steady-state target cleavage rate” near 0.024, cut for the highest 2% near 1.3. Many of the other results were omitted from the sample, so the highest values are more common in it than they were.
Result type: pre-steady-state target cleavage rate
// return a plain number; no unit text

Consider the following illustrative entries.
• UCGACCUACAGCUUCGAUAGUAUUUAGUUA = 0.911
• UCCACCUACAGCAUGCAUAGUAUUUAGUUA = 0.977
• AGGACCUACAGCAUGCUUAGUAUUUAGUUA = 0.977
• AGGACCUACAGCAUGGAUAGUAUUUAGUUA = 1.57
• UCCUCCUACAGCAUGCAUAGUAUUUAGUUA = 1.2

# pre-steady-state target cleavage rate of UCCUCCUACAGCAUGGAUAGUAUUUAGUUA = 1.38

For record UCGACCUACAGCAUGCAUAGUAUUUAGAUA the listed pre-steady-state target cleavage rate is 0.538

The sequence identified as UCCUGCUACAGCAUGGAUAGUAUUUAGUUA registered its pre-steady-state target cleavage rate at 1.13

Note to self: pre-steady-state target cleavage rate recorded for UCGACCUACAGCUUCAUAGUAUUUAGUUA was 1.14
